- target.entity: Cellular tumor antigen p53 (Homo sapiens)
- procedure.details: Primary qHTS for small molecule compounds that upregulate eGFP-tagged delta133p53alpha (in N-terminal) cells. (AID 2060322);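 note: cells pre-induced with doxycycline then dosed without doxycycline; series mostly up to about 56 µM; nearly all actives have a fitted effect of over 75% in size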
- applied.conditions: NCI-H358 eGFP-delta133p53alpha fluorescence, 24 h; hits give high values
Records with an inconclusive call do not appear.
Outcome: t for activation of at least -10%; f for anything lower.

[[record]]
compound = "COc1cc([C@@H]2c3cc4c(cc3[C@@H](O[C@@H]3O[C@@H]5CO[C@@H](c6cccs6)O[C@@H]5[C@H](O)[C@@H]3O)[C@H]3COC(=O)[C@H]23)OCO4)cc(OC)c1O"
target_entity = "Cellular tumor antigen p53 (Homo sapiens)"
label = "f"

[[record]]
compound = "CC1=C(C(=O)OC2OC(COC3OC(CO)C(O)C(O)C3O)C(O)C(O)C2O)C(C)(C)CCC1 (configuration not stated)"
target_entity = "Cellular tumor antigen p53 (Homo sapiens)"
label = "f"

[[record]]
compound = "CN1CCN(c2ccc(-c3cccc(CN4CCOCC4)c3)cc2NC(=O)c2c[nH]c(=O)cc2C(F)(F)F)CC1"
target_entity = "Cellular tumor antigen p53 (Homo sapiens)"
label = "f"

[[record]]
compound = "Nc1ncn([C@@H]2O[C@H](CO)[C@@H](O)[C@@H]2O)c(=O)n1"
target_entity = "Cellular tumor antigen p53 (Homo sapiens)"
label = "t"

[[record]]
compound = "Cc1occc(=O)c1O[C@@H]1O[C@H](COC(=O)CC(C)(O)CC(=O)O)[C@@H](O)[C@H](O)[C@H]1O (some centres not stated)"
target_entity = "Cellular tumor antigen p53 (Homo sapiens)"
label = "f"

[[record]]
compound = "O=C1Nc2ccccc2-c2nc3ccccc3c(=O)n2-c2c(O)cccc21"
target_entity = "Cellular tumor antigen p53 (Homo sapiens)"
label = "t"

[[record]]
compound = "COc1c(C)c(OCC=C(C)C)cc2c1COC2=O"
target_entity = "Cellular tumor antigen p53 (Homo sapiens)"
label = "t"

[[record]]
compound = "O=C(NC[C@H]1CN(c2ccc(N3CCOCC3=O)cc2)C(=O)O1)c1ccc(Cl)s1"
target_entity = "Cellular tumor antigen p53 (Homo sapiens)"
label = "t"

[[record]]
compound = "COc1cc2c(c(O)c1OC/C=C(\\C)CC/C=C(/C)CCC=C(C)C)CN(C(CCC(=O)O)C(=O)O)C2=O (configuration not stated)"
target_entity = "Cellular tumor antigen p53 (Homo sapiens)"
label = "f"

[[record]]
compound = "Cc1cc(C(=O)N2CCN(c3cccc(Cl)c3)CC2)n(-c2ccccc2)n1"
target_entity = "Cellular tumor antigen p53 (Homo sapiens)"
label = "t"

[[record]]
compound = "CC1(C)CC[C@]2(C(=O)O[C@@H]3O[C@H](CO)[C@@H](O)[C@H](O)[C@H]3O)CC[C@]3(C)C(=CCC4[C@@]5(C)C[C@@H](O)[C@H](O)[C@](C)(C=O)C5CC[C@]43C)[C@@H]2[C@@H]1O (some centres not stated)"
target_entity = "Cellular tumor antigen p53 (Homo sapiens)"
label = "t"

[[record]]
compound = "CCOc1cn(-c2ccc(F)cc2C)nc1C(=O)Nc1ccc(Oc2ccnc3cc(OC)c(OC)cc23)c(F)c1"
target_entity = "Cellular tumor antigen p53 (Homo sapiens)"
label = "t"

[[record]]
compound = "CCCCC(=O)N1c2ccccc2NC2=C(C(=O)CCC2)C1c1ccccc1Cl (configuration not stated)"
target_entity = "Cellular tumor antigen p53 (Homo sapiens)"
label = "t"

[[record]]
compound = "CC(C)c1cc2c(c(O)c1O[C@@H]1O[C@H](CO)[C@@H](O)[C@H](O)[C@H]1O)CC1(O)CCC(O)C(C)(C)C1CC2 (some centres not stated)"
target_entity = "Cellular tumor antigen p53 (Homo sapiens)"
label = "f"

[[record]]
compound = "O=C(/C=C/c1ccc(O)cc1)OC1[C@H](O)CC(O)(C(=O)O)C[C@H]1O (some centres not stated)"
target_entity = "Cellular tumor antigen p53 (Homo sapiens)"
label = "t"

[[record]]
compound = "CCOC(=O)C(O)c1ccccc1 (configuration not stated)"
target_entity = "Cellular tumor antigen p53 (Homo sapiens)"
label = "f"

[[record]]
compound = "CC[C@H](CC[C@@H](C)[C@H]1CC[C@H]2[C@@H]3CC=C4C[C@@H](O)CC[C@]4(C)[C@@H]3CC[C@]12C)C(C)C"
target_entity = "Cellular tumor antigen p53 (Homo sapiens)"
label = "f"

